# Assay notes: Pharmacokinetic test, oral administration in male SD rats
# Type: in vivo, rat
# Settings: male, SD, rat, plasma, po, 50 mg/kg, distilled water, read-out: Cmax
Measure: Cmax (ng/mL)
Report as a plain number; the unit ng/mL is understood.

Asked: Could you share which Cmax value was measured for COc1cc(N2CCC(N3CCN(C)CC3)CC2)c(C)cc1Nc1ncc(Br)c(Nc2ccc3nc(C4CC4)ccc3c2P(C)(C)=O)n1.O=C(O)C[C@H](O)C(=O)O ?
Given back: 1990

====

# Assay notes: Pharmacokinetic test, oral administration in male SD rats
# Format: in vivo, rat
# Settings: male, SD, rat, plasma, po, 50 mg/kg, distilled water
Measure: AUC(0-t)

Asked: Using the record for COc1cc(N2CCC(N3CCN(C)CC3)CC2)c(C)cc1Nc1ncc(Br)c(Nc2ccc3nc(C4CC4)ccc3c2P(C)(C)=O)n1.O=C(O)C[C@H](O)C(=O)O , report its AUC(0-t).
Given back: 27400 ng·h/mL

meta.source: patent US20240352053A1
